Taken from ChEMBL document CHEMBL1201862.

Test system: SF-268
Experiment: NCI tumour cell line growth inhibition, 48 h
Activity calls are given as the source filed them. No stated cut-off is given here; in the data, active = GI50 up to about 1.1 µM and inactive = higher.
OBSERVATION_TYPE: GI50

CC1CN=C(N(C(=O)Nc2ccc(Cl)cc2)c2cccc(Cl)c2)S1 (stereo unspecified) | 54.2 µM (inactive)
CC(=O)C1(c2ccccc2)CCN(Cn2sc3nc(C)cc(C)c3c2=O)CC1 | 34.8 µM (inactive)
Cc1cc(OCc2nnc3sc(NC(=O)c4ccccc4)nn23)ccc1Cl | 45 µM (inactive)
N#Cc1c(N)nc(Sc2ccccc2N)c(C#N)c1-c1ccc(Cl)cc1 | 6.24 µM (inactive)
CCO/C=N/NC(=O)CSc1nc2ccc(I)cc2c(=O)n1Cc1ccccc1 | 44.3 µM (inactive)
CCOC(=O)/C(C(=S)Nc1ccccc1)=C(/N)N1CCCC1 | > 100 µM (inactive)
NC1CCCCC1NCCNC1CCCCC1N (stereo unspecified) | > 100 µM (inactive)
O=C1NC(=O)C2C(=O)NC(=O)C1C2(c1ccccc1)c1cc[nH]c1 (stereo unspecified) | > 100 µM (inactive)
Cc1ccc2c(=O)cc(-c3cccc(F)c3)[nH]c2n1 | 0.0678 µM (active)
O=C(CCC(=O)Nc1ccc(Cl)cc1)CC(=O)c1ccc(F)cc1 | > 100 µM (inactive)
CC(C)=CCN(N=O)c1ncnc2[nH]cnc12 | > 100 µM (inactive)
